Please go through the items and note down their TGI.
Tested on: MOLT-4 leukemia
Assay: NCI tumour cell line growth inhibition, 48 h
Give bare numbers, in µM.

Study these solved cases before continuing.
O=C(c1ccccc1)C1N=NCC1c1ccc([N+](=O)[O-])cc1 (centres undefined)
72.9
COC(=O)[C@]12CC[C@@H](C)[C@H](C)[C@@H]1C1=CC[C@@H]3[C@@]4(C)C[C@@H](OC(C)=O)[C@H](O)[C@@](C)(COC(C)=O)[C@@H]4[C@H](O)C[C@@]3(C)[C@]1(C)CC2
4.24
O=C(Nc1cccc2cnccc12)c1cc2c(cc1Cl)Sc1nccn1S2(=O)=O
59.4
Nc1nn2c(C(Br)Br)cc(C(Br)Br)nc2c1[N+](=O)[O-]
1.21

Consider the record given below.
IN: What measured TGI is associated with N#Cc1cnc2cc(OC[C@H](O)CO)c(NC(=O)CC3CSSC3)cc2c1Nc1ccc(OCc2cccc(F)c2)c(Cl)c1 on MOLT-4 leukemia?
OUT: 0.209

* * *

Tested on: 786-0 renal
Test: NCI tumour cell line growth inhibition, 48 h
Assay Metric: TGI

// solved cases for TGI follow
CCOC(=O)C1=C(C)N(Cc2ccccc2)C(C)=C(C(=O)OCC)C1c1ccccc1O
> 100 µM
C[C@H](Nc1ncnc2nc[nH]c12)c1cc2cccc(Cl)c2c(=O)n1-c1ccccc1
> 86.7 µM

Batch lookup, TGI per entry.
1. N#CC(C(=O)/C(=N/NC(=O)c1ccccc1O)C(C#N)c1ccc(Cl)cc1)c1ccc(Cl)cc1 (stereo not drawn)
2. Nn1c(CCCCCCCCc2nnc(COc3c(O)ccc4ccccc34)n2N)nnc1COc1c(O)ccc2ccccc12
3. COc1cccc(NC(=O)CC(=O)N2N=C(N(CCC#N)c3ccc(Cl)cc3)CC2c2ccccc2)c1 (stereo not drawn)
4. CCCCOC(C)(C)/C=C/C(O)[C@](C)(O)[C@H]1[C@H](O)C[C@@]2(C)[C@@H]3CCc4c(cc(OC5OC(CO)C(O)C(O)C5O)c(O)c4C)C3(C)C(=O)C[C@]12C (stereo partly drawn)
5. CC(=O)OC[C@]1(C(=O)C(O)c2ccoc2)[C@H](C)CC[C@@]23COC(=O)C2=CCC[C@@H]31 (stereo partly drawn)
6. COc1ccc(N[C@H](CSc2ccc(C)cc2)c2ccc(F)cc2)cc1

OUT:
1. 29.9 µM
2. > 100 µM
3. > 100 µM
4. > 100 µM
5. > 10 µM
6. > 100 µM

* * *

For each entry below, report its TGI value.
Test system: EKVX NSCLC
Experiment: NCI tumour cell line growth inhibition, 48 h
Numbers only, in µM.

Dear reader, for each entry below, please note its TGI.
1. Cc1cc(-c2nc3c(O)cccc3s2)ccc1N
2. Cc1c(C(=O)/C=C/c2csc3ccccc23)[n+](=O)c2ccccc2n1[O-]
3. CC(C)=CCc1c2c(c3occ(-c4ccc(O)c(O)c4)c(=O)c3c1O)C=CC(C)(C)O2
4. CN(CCCN)CCCNc1nc2ccccc2c2[nH]c3ccccc3c12

OUT:
1. 52.9
2. 3.64
3. 17.3
4. 8.2

* * *

Test system: HOP-92 NSCLC
Assay: NCI tumour cell line growth inhibition, 48 h; in the data active = GI50 below about 0.43 µM; inactive = the rest
# output must be one of active, inactive

Example results:
CNC(=O)c1cncc(/C=C/c2ccccc2C)c1
inactive
Nc1ccn(Cc2ccc(C34CC5CC(CC(C5)C3)C4)c(O)c2)c(=O)n1
inactive
COC(=O)/C=C/C=C(c1ccccc1)c1ccccc1
inactive
CN(CCCN)CCCNc1nc2ccccc2c2[nH]c3ccccc3c12
active
CCCC[C@H](NC(=O)[C@H]1CCCN1C)C(=O)N(C)[C@H](C[C@@H](OC(C)=O)c1nc(C(=O)N[C@@H](Cc2ccccc2)C[C@H](C)C(=O)OCC)cs1)C(C)C
inactive

Here is the next item to consider.
IN: Answer briefly: the call reported for CC(C)(C)C#CC1=C(Br)C(=O)OC1 in this assay.
OUT: inactive

Value source: PubChem BioAssay (NCI)
